The following compounds are shown together with reported Emax values.
- Test system: c-myc in 22RV-1 cells
- assayDetails: Human c-myc ELISA assay
- Type: cell-based
- conditionLabel: Homo sapiens, 22Rv1, 18 h, read-out: Degradation of BRD4: Maximum inhibition (%) c-Myc ELISA in 22RV1 cells
experimentalEndpoint: Emax (%)

- Cc1ncsc1-c1ccc([C@H](C)NC(=O)[C@@H]2C[C@@H](O)CN2C(=O)[C@@H](NC(=O)Cc2ccc(O[C@H]3C[C@H](NC(=O)C[C@@H]4N=C(c5ccc(Cl)cc5)c5c(sc(C)c5C)-n5c(C)nnc54)C3)cc2)C(C)(C)C)cc1 [Example 193]: 100
- Cc1ncsc1-c1ccc([C@H](C)NC(=O)[C@@H]2C[C@@H](O)CN2C(=O)[C@@H](NC(=O)COc2ccc(OCCNC(=O)C[C@@H]3N=C(c4ccc(Cl)cc4)c4c(sc(C)c4C)-n4c(C)nnc43)nc2)C(C)(C)C)cc1 [Example 128]: 100
- Cc1ncsc1-c1ccc(CNC(=O)[C@@H]2C[C@@H](O)CN2C(=O)[C@@H](NC(=O)COCCC(=O)N2CC[C@H](NC(=O)C[C@@H]3N=C(c4ccc(Cl)cc4)c4c(sc(C)c4C)-n4c(C)nnc43)C2)C(C)(C)C)cc1 [Example 88]: 85.9
- Cc1ncsc1-c1ccc([C@H](C)NC(=O)[C@@H]2C[C@@H](O)CN2C(=O)[C@@H](C(C)C)n2cc(-c3ccnc(N4CC(NC(=O)C[C@@H]5N=C(c6ccc(Cl)cc6)c6c(sc(C)c6C)-n6c(C)nnc65)C4)c3)cn2)cc1 [Example 247]: 24.1
- Cc1ncsc1-c1ccc([C@H](C)NC(=O)[C@@H]2C[C@@H](OC(=O)CC(C)(C)N)CN2C(=O)[C@@H](NC(=O)c2cc3cc(O[C@H]4C[C@@H](NC(=O)C[C@@H]5N=C(c6ccc(Cl)cc6)c6c(sc(C)c6C)-n6c(C)nnc65)C4)ccc3o2)C(C)(C)C)cc1 [Example 343]: 87
- Cc1ncsc1-c1ccc([C@H](C)NC(=O)[C@@H]2C[C@@H](O)CN2C(=O)[C@@H](NC(=O)Cc2cccc(O[C@H]3C[C@@H](NC(=O)C[C@@H]4N=C(c5ccc(Cl)cc5)c5c(sc(C)c5C)-n5c(C)nnc54)C3)c2)C(C)(C)C)cc1 [Example 204]: 88
- Cc1ncsc1-c1ccc(CNC(=O)[C@@H]2C[C@@H](O)CN2C(=O)[C@@H](NC(=O)COCCC[S+]([O-])CCNC(=O)C[C@@H]2N=C(c3ccc(Cl)cc3)c3c(sc(C)c3C)-n3c(C)nnc32)C(C)(C)C)cc1 (some centres unmarked) [Example 112]: 26.8
- Cc1ncsc1-c1ccc([C@H](C)NC(=O)[C@@H]2C[C@@H](O)CN2C(=O)[C@@H](NC(=O)CN2CCC(O[C@H]3C[C@H](NC(=O)c4ccc5c6ncc(-c7c(C)noc7C)cc6n([C@H](c6ccccc6)C6CCOCC6)c5c4)C3)CC2)C(C)(C)C)cc1 [Example 365]: 100
